Recorded % Inhibition (FS), one value per entry.
- TARGET ENTITY: β-secretase (BACE) (Homo sapiens)
- Construct: purchased Panvera
- Sequence (P56817 46-501): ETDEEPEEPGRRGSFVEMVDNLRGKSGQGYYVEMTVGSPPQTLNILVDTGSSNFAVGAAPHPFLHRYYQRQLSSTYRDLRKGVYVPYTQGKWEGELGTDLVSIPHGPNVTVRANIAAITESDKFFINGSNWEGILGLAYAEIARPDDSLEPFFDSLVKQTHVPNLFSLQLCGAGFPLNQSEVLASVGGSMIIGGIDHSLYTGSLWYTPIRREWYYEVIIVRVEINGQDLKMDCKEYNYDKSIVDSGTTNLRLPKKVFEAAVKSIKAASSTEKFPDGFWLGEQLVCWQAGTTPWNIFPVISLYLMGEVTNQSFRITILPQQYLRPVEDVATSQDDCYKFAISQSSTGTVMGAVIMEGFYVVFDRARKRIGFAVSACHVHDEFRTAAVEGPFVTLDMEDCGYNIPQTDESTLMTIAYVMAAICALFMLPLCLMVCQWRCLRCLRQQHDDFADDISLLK
- ASSAY EXPLANATION: BACE FS1 % Inhibition Assay
- Assay type: biochemical
- RUN CONDITIONS: 3 μM test compound
ASSAY METRIC: % Inhibition (FS)

[[record]]
compound = "NC1=Nc2ccc(Oc3ccccc3)cc2CN1C(CC(=O)NC1CCCCC1)C1CCCCC1 (centres unmarked)"
reported_measurement = "77%"

[[record]]
compound = "NC1=Nc2ccc(Oc3ccccc3)cc2CN1CCCCNC(=O)C1CCCCC1"
reported_measurement = "40%"

[[record]]
compound = "CN(C(=O)c1cccc(CN2Cc3cc(Nc4ccc5ccccc5c4)ccc3N=C2N)c1)C1CCCCC1"
reported_measurement = "50%"

[[record]]
compound = "CN(C(=O)CC(C1CCCCC1)N1Cc2cc(Oc3ccccc3)ccc2N=C1N)C1CCCCC1 (centres unmarked)"
reported_measurement = "82%"

[[record]]
compound = "NC1=Nc2ccc(-c3cccc(C(F)(F)F)c3)cc2CN1CCNC(=O)Cc1ccccc1"
reported_measurement = "41%"

[[record]]
compound = "CCCC=Cc1ccc2c(c1)CN(CCNC(=O)c1ccc(NC(C)=O)cc1)C(N)=N2"
reported_measurement = "<30%"

[[record]]
compound = "NC1=Nc2ccc(-c3ccc(Cl)cc3)cc2CN1CCNC(=O)C1CCCCC1"
reported_measurement = "56%"

[[record]]
compound = "CCOc1cccc(Nc2ccc3c(c2)CN(Cc2cccc(C(=O)N(C)C4CCCCC4)c2)C(N)=N3)c1"
reported_measurement = "72%"

